Reference source for all entries: patent US20180237441A1

- Tested system: PERK (Homo sapiens, UniProt Q9NZJ5)
- Sequence (Q9NZJ5 30-1116): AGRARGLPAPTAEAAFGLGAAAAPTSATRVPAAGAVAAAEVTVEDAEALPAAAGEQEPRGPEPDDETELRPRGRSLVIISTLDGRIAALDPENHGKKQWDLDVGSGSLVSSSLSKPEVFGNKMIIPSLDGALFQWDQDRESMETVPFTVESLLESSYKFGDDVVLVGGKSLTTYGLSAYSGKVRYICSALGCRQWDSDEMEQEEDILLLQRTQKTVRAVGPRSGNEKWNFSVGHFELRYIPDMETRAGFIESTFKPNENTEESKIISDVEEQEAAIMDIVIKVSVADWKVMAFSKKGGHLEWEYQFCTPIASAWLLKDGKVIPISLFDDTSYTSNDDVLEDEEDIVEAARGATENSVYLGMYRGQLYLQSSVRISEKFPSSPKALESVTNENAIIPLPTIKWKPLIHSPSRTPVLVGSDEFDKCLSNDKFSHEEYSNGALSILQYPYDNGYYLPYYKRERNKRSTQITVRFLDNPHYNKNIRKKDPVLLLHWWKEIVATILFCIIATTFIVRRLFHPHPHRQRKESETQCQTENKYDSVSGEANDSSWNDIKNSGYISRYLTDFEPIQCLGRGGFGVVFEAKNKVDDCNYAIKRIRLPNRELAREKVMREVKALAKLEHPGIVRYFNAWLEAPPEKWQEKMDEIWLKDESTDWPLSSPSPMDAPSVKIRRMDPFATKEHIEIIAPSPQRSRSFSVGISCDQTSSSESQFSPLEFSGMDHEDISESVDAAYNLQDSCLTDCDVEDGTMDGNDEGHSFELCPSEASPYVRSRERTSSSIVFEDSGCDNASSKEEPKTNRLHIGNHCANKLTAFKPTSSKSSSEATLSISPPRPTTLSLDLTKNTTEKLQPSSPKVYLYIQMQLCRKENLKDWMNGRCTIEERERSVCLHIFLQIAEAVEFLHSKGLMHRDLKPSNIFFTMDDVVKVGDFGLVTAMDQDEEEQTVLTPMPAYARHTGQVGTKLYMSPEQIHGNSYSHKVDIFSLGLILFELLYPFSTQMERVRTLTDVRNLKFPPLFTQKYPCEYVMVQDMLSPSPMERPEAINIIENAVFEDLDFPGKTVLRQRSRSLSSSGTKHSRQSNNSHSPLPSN
- Experiment notes: PERK enzyme assay (HTRF)
- Type: biochemical
- Conditions used: PERK Enzyme (500 μM ATP) IC50; at least one experimental run; read-out: PERK Activity
Provide the recorded IC50 for the entries that follow.

Please report the recorded IC50 for Cn1cc(-c2ccc(N3CC(C4CCCC4)CC3=O)cc2F)c2c(N)ncnc21 (stereo not shown) [Example 28] . 100 to 1000 nM

Now consider CCN1C(=O)N(c2ccc(-c3cn(C)c4ncnc(N)c34)c(F)c2)CC1c1ccc(F)cc1 (stereo not shown) [Example 57] . < 100 nM

Now consider CN1C(=O)N(c2ccc(-c3cn(C)c4ncnc(N)c34)c(Cl)c2)CC1c1cc(F)cc(F)c1 (single isomer, unassigned) [Example 128] . < 100 nM

Now consider CCN1C(=O)N(c2ccc(-c3cn(C)c4ncnc(N)c34)c(F)c2)CC1c1cc(F)ccc1F (single isomer, unassigned) [Example 3] . 100 to 1000 nM

Now consider CN1C(=O)N(c2ccc(-c3cn(C4CC4)c4ncnc(N)c34)c(Cl)c2)CC1c1cc(F)cc(F)c1 (single isomer, unassigned) [Example 130] . < 100 nM

Now consider CCN1C(=O)N(c2ccc(-c3cn(C)c4nc(C)nc(N)c34)c(F)c2)CC1c1cc(F)ccc1F (stereo not shown) [Example 19] . > 1000 nM

Now consider CN1C(=O)N(c2ccc(-c3cn(C4CC4)c4ncnc(N)c34)c(F)c2)CC1c1cccc(Cl)c1 (stereo not shown) [Example 148] . < 100 nM

---

Provide the recorded IC50 for the entries that follow.
- Tested system: PERK (Homo sapiens)
- Experiment notes: PERK enzyme assay (HTRF)
- Type: biochemical
- Conditions used: 500 μM ATP; at least one experimental run; read-out: PERK Enzyme (500 μM ATP) IC50
Your answer should be a plain number; it is taken to be in nM.

Please report the recorded IC50 for CN1C(=O)N(c2ccc(-c3cn(C4CC4)c4ncnc(N)c34)c(F)c2)CC1c1ccc(F)cc1F (single isomer, unassigned) [Example 154] . 988

Now consider CCN1C(=O)N(c2ccc(-c3cn(C)c4ncnc(N)c34)c(F)c2)CC1c1cccc(C)c1 (stereo not drawn) [Example 36] . 462

Now consider Cc1nc(N)c2c(-c3ccc(N4CC(c5ccc(F)cc5)N(C)C4=O)cc3F)cn(C)c2n1 (single isomer, unassigned) [Example 70] . 18.6

Now consider CN1C(=O)N(c2ccc(-c3cn(C)c4ncnc(N)c34)c(F)c2)CC1c1cc(F)cc(F)c1 (stereo not drawn) [Example 25] . 74.2

Now consider CCN1C(=O)N(c2ccc(-c3cn(C)c4ncnc(N)c34)c(F)c2)CC1c1cc(F)cc(F)c1 (single isomer, unassigned) [Example 172] . 30.1

Now consider CCN1C(=O)N(c2ccc(-c3cn(C)c4ncnc(N)c34)c(F)c2)CC1c1cc(F)ccc1F (single isomer, unassigned) [Example 2] . 77.4

---

Provide the recorded pIC50 for the entries that follow.
- Tested system: PERK (Homo sapiens, UniProt Q9NZJ5)
- Experiment notes: PERK enzyme assay (HTRF)
- Assay type: biochemical
- Conditions used: PERK Enzyme (500 μM ATP) IC50; at least one experimental run; read-out: PERK Activity
pIC50: −log10 of the molar value.

Please report the recorded pIC50 for CN1C(=O)N(c2ccc(-c3cn(C4CC4)c4ncnc(N)c34)c(F)c2)CC1c1cc(F)cc(F)c1 (racemic) [Example 175] . > 7.00

Now consider CN1C(=O)N(c2ccc(-c3cn(C)c4ncnc(N)c34)c(F)c2)CC1c1cc(F)cc(Cl)c1 (single isomer, unassigned) [Example 52] . 6.00 to 7.00

Now consider CCN1C(=O)N(c2ccc(-c3cn(C4CC4)c4ncnc(N)c34)c(F)c2)CC1c1cc(F)ccc1F (single isomer, unassigned) [Example 123] . 6.00 to 7.00

Now consider CCN1C(=O)N(c2ccc(-c3cn(C4CC4)c4ncnc(N)c34)c(F)c2)CC1c1cc(F)ccc1F (single isomer, unassigned) [Example 124] . > 7.00

Now consider CCN1C(=O)N(c2ccc(-c3cn(CC(F)F)c4ncnc(N)c34)c(F)c2)CC1c1cc(F)ccc1F (centres unmarked) [Example 17] . 6.00 to 7.00

Now consider Cn1cc(-c2ccc(N3CC(C4CCCCC4)CC3=O)cc2F)c2c(N)ncnc21 (centres unmarked) [Example 6] . < 6.00

Now consider CCN1C(=O)N(c2ccc(-c3cn(C)c4nc(C)nc(N)c34)c(F)c2)CC1c1ccc(F)cc1F (single isomer, unassigned) [Example 67] . 6.00 to 7.00

Now consider CN1C(=O)N(c2ccc(-c3cn(C)c4ncnc(N)c34)c(F)c2)CC1c1cc(Cl)ccc1F (centres unmarked) [Example 53] . 6.00 to 7.00

Now consider CCN1C(=O)N(c2ccc(-c3cn(C)c4ncnc(N)c34)c(F)c2)CC1c1cccc(C)n1 (centres unmarked) [Example 50] . 6.00 to 7.00

Now consider CN1C(=O)N(c2ccc(-c3cn(C4CC4)c4ncnc(N)c34)c(F)c2)CC1c1ccc(F)cc1F (centres unmarked) [Example 108] . > 7.00

Now consider CN1C(=O)N(c2ccc(-c3cn(C)c4ncnc(N)c34)c(F)c2)CC1c1ccc(F)cc1 (single isomer, unassigned) [Example 59] . > 7.00

Now consider CCN1C(=O)N(c2ccc(-c3cn(C)c4ncnc(N)c34)c(F)c2)CC1c1ccc(F)cc1F (centres unmarked) [Example 23] . 6.00 to 7.00

Now consider CN1C(=O)N(c2ccc(-c3cn(C)c4ncnc(N)c34)c(F)c2)CC1c1ccc(F)c(F)c1 (centres unmarked) [Example 96] . > 7.00

Now consider CN1C(=O)N(c2ccc(-c3cn(C4CC4)c4ncnc(N)c34)c(F)c2)CC1c1ccc(F)c(Cl)c1 (centres unmarked) [Example 132] . > 7.00
